Please go through the items and note down their self-cleavage.
B1: Hairpin Ribozyme (parent)
chain: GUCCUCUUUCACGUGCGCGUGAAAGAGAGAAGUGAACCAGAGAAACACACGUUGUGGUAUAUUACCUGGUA

variants of: B1; experiment: self-cleavage, relative activity (ratio to wild type); higher = more cleavage; co-transcriptional
Answer field: number only, no words.

Looking up C18G A49U , I found its self-cleavage recorded as 0.196

Lab book: self-cleavage of C3G G27U noted as 0.164

Note to self: self-cleavage recorded for C37U U58G was 0.553

Lookup result for G1U G57C ; measured self-cleavage: 0.145

Per the record, U5G G29A has self-cleavage of 0.139

So for A24C G29C , the logged self-cleavage turned out to be 0.208

Entry G29C U70A ; self-cleavage = 0.162

The value of self-cleavage measured for the variant A28G U70C turned out to be 0.859

self-cleavage for A35G C38A is 0.162

Sample G40A ; self-cleavage observed: 0.329

The value of self-cleavage measured for the variant G25U A64G turned out to be 0.428

Reported self-cleavage for G17C A36G was 0.48

Given item A49C C50G , the value recorded as its self-cleavage is 0.129

self-cleavage in this record for G29A C38G : 0.101

Reported self-cleavage for C65A U70A was 0.686

The variant listed as G27U G56U has a reported self-cleavage of 0.108

Item: U58A U63G | self-cleavage: 0.194

For reference, reported self-cleavage for G19U U55A stands at 0.287

According to the records, this variant C6U A26G displays self-cleavage of 0.31

// recorded self-cleavage for C4A A47U : 0.0985

Form field self-cleavage, entry G29A A71G : 0.112

So for A24G U67C , the logged self-cleavage turned out to be 0.222

In plain terms, A22C A23C has a documented self-cleavage of 0.947

Documented self-cleavage of U9A A24G : 0.461

Form field self-cleavage, entry A36G A47G : 0.106

So for U9G C48G , the logged self-cleavage turned out to be 0.0994

Looking up U7A G69C , I see its self-cleavage listed as 0.196

variant A24G U60G , self-cleavage observed: 0.661

Entry G34U G57C , self-cleavage reported as 0.552

The reported value for A24U A41U in terms of self-cleavage is 1.17

Noted for U60G U63C : its self-cleavage reads 0.171

The variant U7A A43G showed self-cleavage equal to 0.222
